Biological target: Cannabinoid receptor 1 (Homo sapiens)
Experiment: biochemical
Format: cell-based, HEK293
result-type: Ki (µM)
Supply the numeric figure in µM, leaving out any unit text.

smiles-input | target-entity | Ki, µM
Cc1c(C(=O)NCCNCCNC(=O)c2nn(-c3ccc(Cl)cc3Cl)c(-c3ccc(Cl)cc3)c2C)nn(-c2ccc(Cl)cc2Cl)c1-c1ccc(Cl)cc1 | Cannabinoid receptor 1 (Homo sapiens) | 0.094
Cc1c(C(=O)NCCCCCCCN(C)CCCCCCCN)nn(-c2ccc(Cl)cc2Cl)c1-c1ccc(Cl)cc1 | Cannabinoid receptor 1 (Homo sapiens) | 0.0155
Cc1c(C(=O)NCCCCCCCCCCCN(C)CCCCCCCCCCCN)nn(-c2ccc(Cl)cc2Cl)c1-c1ccc(Cl)cc1 | Cannabinoid receptor 1 (Homo sapiens) | 0.00551

query: Given the compound Cc1c(C(=O)NCCCCCNCCCCCNC(=O)c2nn(-c3ccc(Cl)cc3Cl)c(-c3ccc(Cl)cc3)c2C)nn(-c2ccc(Cl)cc2Cl)c1-c1ccc(Cl)cc1 , what is its reported Ki?
result: 0.0304

query: Ok, now Cc1c(C(=O)NCCCCCCCCCCCN(C)CCCCCCCCCCCNC(=O)c2nn(-c3ccc(Cl)cc3Cl)c(-c3ccc(Cl)cc3)c2C)nn(-c2ccc(Cl)cc2Cl)c1-c1ccc(Cl)cc1
result: 1.29

query: Ok, now Cc1c(C(=O)NCCCCCNCCCCCN)nn(-c2ccc(Cl)cc2Cl)c1-c1ccc(Cl)cc1
result: 0.23

query: Ok, now Cc1c(C(=O)NCCCCCCCNCCCCCCCN)nn(-c2ccc(Cl)cc2Cl)c1-c1ccc(Cl)cc1
result: 0.0195

* * *

Biological target: Cannabinoid receptor 1 (Rattus norvegicus, UniProt P20272)
Sequence (P20272 whole entry): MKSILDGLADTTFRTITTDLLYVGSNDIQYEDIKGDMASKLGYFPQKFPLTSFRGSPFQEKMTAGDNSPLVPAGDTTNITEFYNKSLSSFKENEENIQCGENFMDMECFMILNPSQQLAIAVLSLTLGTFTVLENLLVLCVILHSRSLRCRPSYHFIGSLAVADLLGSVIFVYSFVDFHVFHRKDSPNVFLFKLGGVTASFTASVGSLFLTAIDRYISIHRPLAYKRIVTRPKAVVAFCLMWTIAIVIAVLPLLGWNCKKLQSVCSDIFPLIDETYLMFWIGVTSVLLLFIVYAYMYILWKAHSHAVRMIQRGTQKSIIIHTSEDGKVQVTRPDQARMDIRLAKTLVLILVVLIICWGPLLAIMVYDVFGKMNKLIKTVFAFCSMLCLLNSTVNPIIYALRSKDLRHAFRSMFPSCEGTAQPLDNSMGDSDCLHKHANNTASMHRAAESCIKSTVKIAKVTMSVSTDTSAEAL
Assay: Antagonist activity at rat brain CB1 receptor assessed as inhibition of [35S]GTPgammaS binding
result-type: pEC50
Scale for pEC50: -log10 of concentration given in mol/L; no unit attached.

Example results:
smiles-input | pEC50
Cc1c(C(=O)NCCCCCCCCCNCCCCCCCCCN)nn(-c2ccc(Cl)cc2Cl)c1-c1ccc(Cl)cc1 | 5.62
Cc1c(C(=O)NCCCCCCCN(C)CCCCCCCNC(=O)c2nn(-c3ccc(Cl)cc3Cl)c(-c3ccc(Cl)cc3)c2C)nn(-c2ccc(Cl)cc2Cl)c1-c1ccc(Cl)cc1 | 5.84
Cc1c(C(=O)NCCCCCNCCCCCN)nn(-c2ccc(Cl)cc2Cl)c1-c1ccc(Cl)cc1 | 5.65
Cc1c(C(=O)NCCCCCN(C)CCCCCN)nn(-c2ccc(Cl)cc2Cl)c1-c1ccc(Cl)cc1 | 5.52
Cc1c(C(=O)NCCCNCCCNC(=O)c2nn(-c3ccc(Cl)cc3Cl)c(-c3ccc(Cl)cc3)c2C)nn(-c2ccc(Cl)cc2Cl)c1-c1ccc(Cl)cc1 | 6.14

query: Given the molecule Cc1c(C(=O)NCCCCCCCNCCCCCCCNC(=O)c2nn(-c3ccc(Cl)cc3Cl)c(-c3ccc(Cl)cc3)c2C)nn(-c2ccc(Cl)cc2Cl)c1-c1ccc(Cl)cc1 , what is its reported pEC50?
result: 5.92

query: Ok, now Cc1c(C(=O)NCCCCCCCCCNCCCCCCCCCNC(=O)c2nn(-c3ccc(Cl)cc3Cl)c(-c3ccc(Cl)cc3)c2C)nn(-c2ccc(Cl)cc2Cl)c1-c1ccc(Cl)cc1
result: 8.87

query: Ok, now Cc1c(C(=O)NCCCCCCCCCN(C)CCCCCCCCCN)nn(-c2ccc(Cl)cc2Cl)c1-c1ccc(Cl)cc1
result: 5.47

query: Ok, now Cc1c(C(=O)NCCCCCCCNCCCCCCCN)nn(-c2ccc(Cl)cc2Cl)c1-c1ccc(Cl)cc1
result: 5.48

* * *

Target: Cannabinoid receptor 1 (Homo sapiens)
Assay: Antagonist activity at human brain CB1 receptor by calcium mobilization assay
Type: functional
Settings: read-out: pA2 (converted)
result-type: Kb (nM)
Supply the numeric figure in nM, leaving out any unit text.

Example results:
smiles-input | target-entity | reported-result
Cc1c(C(=O)NCCCCCCCCCN(C)CCCCCCCCCN)nn(-c2ccc(Cl)cc2Cl)c1-c1ccc(Cl)cc1 | Cannabinoid receptor 1 (Homo sapiens) | 4.57
Cc1c(C(=O)NCCCNCCCNC(=O)c2nn(-c3ccc(Cl)cc3Cl)c(-c3ccc(Cl)cc3)c2C)nn(-c2ccc(Cl)cc2Cl)c1-c1ccc(Cl)cc1 | Cannabinoid receptor 1 (Homo sapiens) | 38.9
Cc1c(C(=O)NCCCCCNCCCCCNC(=O)c2nn(-c3ccc(Cl)cc3Cl)c(-c3ccc(Cl)cc3)c2C)nn(-c2ccc(Cl)cc2Cl)c1-c1ccc(Cl)cc1 | Cannabinoid receptor 1 (Homo sapiens) | 29.5

query: Given the compound Cc1c(C(=O)NCCCCCCCN(C)CCCCCCCN)nn(-c2ccc(Cl)cc2Cl)c1-c1ccc(Cl)cc1 , what is its reported Kb?
result: 21.9

* * *

Biological target: Cannabinoid receptor 1 (Homo sapiens, UniProt P21554)
Sequence (P21554 whole entry): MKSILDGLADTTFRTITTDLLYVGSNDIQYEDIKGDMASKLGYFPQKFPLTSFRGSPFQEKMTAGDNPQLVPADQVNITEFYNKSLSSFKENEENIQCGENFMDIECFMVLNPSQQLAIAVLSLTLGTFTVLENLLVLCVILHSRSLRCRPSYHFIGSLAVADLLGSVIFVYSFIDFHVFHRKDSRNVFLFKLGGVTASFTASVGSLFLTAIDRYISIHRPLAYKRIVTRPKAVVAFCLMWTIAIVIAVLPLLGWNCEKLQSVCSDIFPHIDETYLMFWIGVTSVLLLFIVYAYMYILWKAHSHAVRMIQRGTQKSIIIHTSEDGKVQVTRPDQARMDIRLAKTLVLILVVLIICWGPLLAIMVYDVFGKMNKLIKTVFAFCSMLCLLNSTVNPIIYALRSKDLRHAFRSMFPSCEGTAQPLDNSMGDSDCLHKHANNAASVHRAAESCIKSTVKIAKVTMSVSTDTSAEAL
Test: Displacement of [3H]CP55940 from human CB1 receptor expressed in HEK293 cells
Format: cell-based
result-type: Ki (nM)
Supply the numeric figure in nM, leaving out any unit text.

Example results:
smiles-input | units-of-measure | reported-result
Cc1c(C(=O)NCCCCCN(C)CCCCCNC(=O)c2nn(-c3ccc(Cl)cc3Cl)c(-c3ccc(Cl)cc3)c2C)nn(-c2ccc(Cl)cc2Cl)c1-c1ccc(Cl)cc1 | nM | 38.7
Cc1c(C(=O)NCCCCCCCCCN(C)CCCCCCCCCNC(=O)c2nn(-c3ccc(Cl)cc3Cl)c(-c3ccc(Cl)cc3)c2C)nn(-c2ccc(Cl)cc2Cl)c1-c1ccc(Cl)cc1 | nM | 247
Cc1c(C(=O)NCCCCCCCCCCCN(C)CCCCCCCCCCCN)nn(-c2ccc(Cl)cc2Cl)c1-c1ccc(Cl)cc1 | nM | 14.7
Cc1c(C(=O)NCCCCCCCCCCCN(C)CCCCCCCCCCCNC(=O)c2nn(-c3ccc(Cl)cc3Cl)c(-c3ccc(Cl)cc3)c2C)nn(-c2ccc(Cl)cc2Cl)c1-c1ccc(Cl)cc1 | nM | 1890
Cc1c(C(=O)NCCCCCCCN(C)CCCCCCCN)nn(-c2ccc(Cl)cc2Cl)c1-c1ccc(Cl)cc1 | nM | 37.5
Cc1c(C(=O)NCCCCCCCNCCCCCCCN)nn(-c2ccc(Cl)cc2Cl)c1-c1ccc(Cl)cc1 | nM | 46.7
Cc1c(C(=O)NCCCCCCCCCNCCCCCCCCCN)nn(-c2ccc(Cl)cc2Cl)c1-c1ccc(Cl)cc1 | nM | 14
Cc1c(C(=O)NCCNCCN)nn(-c2ccc(Cl)cc2Cl)c1-c1ccc(Cl)cc1 | nM | 1230

From here, focus on the item given below.
query: Given the compound Cc1c(C(=O)NCCCCCCCCCCCNCCCCCCCCCCCNC(=O)c2nn(-c3ccc(Cl)cc3Cl)c(-c3ccc(Cl)cc3)c2C)nn(-c2ccc(Cl)cc2Cl)c1-c1ccc(Cl)cc1 , what is its reported Ki?
result: 99.3

* * *

In this section we review reported Ke values for a set of compounds.
Target: Cannabinoid receptor 1 (Homo sapiens, UniProt P21554)
Details: CHO

Example results:
smiles-input | Ke
Cc1c(C(=O)NCCCCCCCCCCCN(C)CCCCCCCCCCCN)nn(-c2ccc(Cl)cc2Cl)c1-c1ccc(Cl)cc1 | 206 nM
Cc1c(C(=O)NCCCCCCCN(C)CCCCCCCNC(=O)c2nn(-c3ccc(Cl)cc3Cl)c(-c3ccc(Cl)cc3)c2C)nn(-c2ccc(Cl)cc2Cl)c1-c1ccc(Cl)cc1 | 478 nM
Cc1c(C(=O)NCCCCCCCCCCCNCCCCCCCCCCCN)nn(-c2ccc(Cl)cc2Cl)c1-c1ccc(Cl)cc1 | 146 nM
Cc1c(C(=O)NCCCCCNCCCCCN)nn(-c2ccc(Cl)cc2Cl)c1-c1ccc(Cl)cc1 | 5400 nM
Cc1c(C(=O)NCCCCCCCCCNCCCCCCCCCN)nn(-c2ccc(Cl)cc2Cl)c1-c1ccc(Cl)cc1 | 31.6 nM

From here, focus on the item given below.
query: Provide value of Ke for this record tested with Cannabinoid receptor 1 (Homo sapiens, UniProt P21554): Cc1c(C(=O)NCCCCCCCCCCCNCCCCCCCCCCCNC(=O)c2nn(-c3ccc(Cl)cc3Cl)c(-c3ccc(Cl)cc3)c2C)nn(-c2ccc(Cl)cc2Cl)c1-c1ccc(Cl)cc1
result: > 10000 nM

* * *

Assay system Cannabinoid receptor 2 (Homo sapiens); read-out recorded as Ki.

Example results:
smiles-input | target-entity | reported-result
Cc1c(C(=O)NCCCNCCCNC(=O)c2nn(-c3ccc(Cl)cc3Cl)c(-c3ccc(Cl)cc3)c2C)nn(-c2ccc(Cl)cc2Cl)c1-c1ccc(Cl)cc1 | Cannabinoid receptor 2 (Homo sapiens) | 496 nM
Cc1c(C(=O)NCCCCCNCCCCCN)nn(-c2ccc(Cl)cc2Cl)c1-c1ccc(Cl)cc1 | Cannabinoid receptor 2 (Homo sapiens) | > 2500 nM
Cc1c(C(=O)NCCCCCN(C)CCCCCNC(=O)c2nn(-c3ccc(Cl)cc3Cl)c(-c3ccc(Cl)cc3)c2C)nn(-c2ccc(Cl)cc2Cl)c1-c1ccc(Cl)cc1 | Cannabinoid receptor 2 (Homo sapiens) | 1040 nM
Cc1c(C(=O)NCCCCCCCCCCCN(C)CCCCCCCCCCCN)nn(-c2ccc(Cl)cc2Cl)c1-c1ccc(Cl)cc1 | Cannabinoid receptor 2 (Homo sapiens) | 426 nM
Cc1c(C(=O)NCCCCCNCCCCCNC(=O)c2nn(-c3ccc(Cl)cc3Cl)c(-c3ccc(Cl)cc3)c2C)nn(-c2ccc(Cl)cc2Cl)c1-c1ccc(Cl)cc1 | Cannabinoid receptor 2 (Homo sapiens) | 451 nM

From here, focus on the item given below.
query: Given the compound Cc1c(C(=O)NCCCCCCCCCCCNCCCCCCCCCCCNC(=O)c2nn(-c3ccc(Cl)cc3Cl)c(-c3ccc(Cl)cc3)c2C)nn(-c2ccc(Cl)cc2Cl)c1-c1ccc(Cl)cc1 , what is its reported Ki?
result: > 2500 nM
